experiment: Caco-2 membrane permeability, improved method as used in the following Examples (96-well, 20 to 24 h preincubation); format: in vitro ADME; conditions: human, Caco-2, Caco-2 (cm/sec)
Positions of bridges follow the written chain, without caps; N, C: chain ends. Non-standard residues stand in square brackets, D forms with d. Residues, ends and D or L forms follow the SMILES beside them. *: point of attachment. Phe(4-CF3) = N[C@@H](Cc1ccc(C(F)(F)F)cc1)C(=O)O; NMePhe(3-Cl) = CN[C@@H](Cc1cccc(Cl)c1)C(=O)O; NMePhe(4-Cl) = CN[C@@H](Cc1ccc(Cl)cc1)C(=O)O; NMeF = CN[C@@H](Cc1ccccc1)C(=O)O; NMeD = CN[C@@H](CC(=O)O)C(=O)O; NMeL = CN[C@@H](CC(C)C)C(=O)O; NMeV = CN[C@H](C(=O)O)C(C)C; Pip = O=C(O)[C@@H]1CCCCN1; NMeA = CN[C@@H](C)C(=O)O; Piperidide = C1CCN(*)CC1; Sar = CNCC(=O)O; tBu = CC(C)(C)*
Metric: Papp A→B at 180 min (×10⁻⁶ cm/s)
Number only, in ×10⁻⁶ cm/s; omit the unit.

CC(C)C[C@@H]1NC(=O)[C@H](CC(C)C)N(C)C(=O)[C@@H](C)NC(=O)C[C@@H](C(=O)N2CCCCC2)NC(=O)[C@H](Cc2ccccc2)N(C)C(=O)[C@H](Cc2ccccc2)N(C)C(=O)[C@H](C)N(C)C(=O)[C@H]([C@@H](C)O)NC(=O)[C@H](Cc2ccccc2)N(C)C(=O)[C@H](COC(C)(C)C)NC(=O)[C@H](Cc2ccccc2)N(C)C1=O [pd234] ([dA][NMeL]L[NMeF]S(tBu)[NMeF]T[NMeA][NMeF][NMeF]D-Piperidide; lactam N-11): 0.15
CC(C)C[C@H]1C(=O)N[C@@H](COC(C)(C)C)C(=O)N(C)[C@@H](Cc2ccccc2)C(=O)N(C)[C@@H](CC(C)C)C(=O)N(C)[C@H](C(=O)N2CCCCC2)CC(=O)N(C)[C@@H](C)C(=O)N(C)[C@@H](Cc2cccc(Cl)c2)C(=O)N[C@@H](C(C)C)C(=O)N(C)[C@@H](C(C)C)C(=O)N[C@@H]([C@@H](C)O)C(=O)N(C)CC(=O)N1C [pd169] ([NMeA][NMePhe(3-Cl)]V[NMeV]T[Sar][NMeL]S(tBu)[NMeF][NMeL][NMeD]-Piperidide; lactam N-11): 3.8
CC(C)C[C@H]1C(=O)N[C@H](C(=O)N2CCCCC2)CC(=O)N[C@H](C)C(=O)N(C)[C@@H](CC(C)C)C(=O)N[C@@H](COC(C)(C)C)C(=O)N(C)[C@@H](CC(C)C)C(=O)N2CCCC[C@H]2C(=O)N(C)[C@@H](C)C(=O)N[C@@H]([C@@H](C)O)C(=O)N(C)[C@@H](Cc2ccccc2)C(=O)N[C@@H](Cc2ccc(C(F)(F)F)cc2)C(=O)N1C [pd137] ([dA][NMeL]S(tBu)[NMeL][Pip][NMeA]T[NMeF][Phe(4-CF3)][NMeL]D-Piperidide; lactam N-11): 2.2

Next item in the queue.
Specify measured Papp A→B at 180 min for CC[C@H](C)[C@@H]1NC(=O)[C@H](Cc2ccc(Cl)cc2)N(C)C(=O)CN(C)C(=O)C[C@@H](C(=O)N2CCCCC2)NC(=O)[C@H](C(C)C)N(C)C(=O)[C@H](COC(C)(C)C)NC(=O)[C@H](CC(C)C)N(C)C(=O)[C@H](Cc2ccccc2)N(C)C(=O)CN(C)C(=O)[C@H]([C@@H](C)O)NC(=O)[C@H](CC(C)C)N(C)C1=O [pd176] ([Sar][NMePhe(4-Cl)]I[NMeL]T[Sar][NMeF][NMeL]S(tBu)[NMeV]D-Piperidide; lactam N-11) . 1.2
